Measured values drawn from paper PMC10397247 for this set.

assayed-target: T1, 4H3858-bN
T1 chain: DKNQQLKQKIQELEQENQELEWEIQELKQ
measurement-description: two-hybrid library CCNG1;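 further: natural log of median RNA to DNA barcode read ratio; higher means stronger binding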
parameter: interaction score
Provide a numeric answer; units are not to be included.

Below: 5 binders and their reported interaction score.
{"columns": ["binder", "parameter", "endpoint-value"],
 "data": [
  ["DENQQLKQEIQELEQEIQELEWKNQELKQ [4H1544-bN]", "interaction score", -0.293],
  ["DENQQLEQKIQELEQKNQELKWEIQELKQ [4H1338-bN]", "interaction score", 1.37],
  ["DKNQQLKQEIQELEQKIQELKWENQELKQ [4H3628-bN]", "interaction score", -2.07],
  ["DKNQQLKQEIQELEQENQELKWKIQELEQ [4H3613-bN]", "interaction score", -0.655],
  ["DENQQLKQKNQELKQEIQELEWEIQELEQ [4H1985-bN]", "interaction score", -0.987]
]}

Identify measured interaction score associated with DKNQQLKQENQELKQKIQELKWEIQELEQ [4H3817-bN]
-0.555
